tested on: SARS-CoV-2 replicon; type: cell-based; conditions: read-out: SARS-CoV-2 Replicon (Huh-7cell) EC50
Each record here notes measured EC50.
MEASUREMENT LABEL: EC50

COMPOUND	RESULT
CC(C)C(=O)O[C@H]1[C@@H](OC(=O)C(C)C)[C@](C#N)(c2ccc3c(N)ncnn23)O[C@@H]1CO[P@](=O)(N[C@@H](CC(=O)OC1CCC1)C(=O)OC1CCC1)Oc1ccccc1 [Compound 54a]	0.01 to 0.05 µM
CC(C)OC(=O)OCO[P@@](=O)(N[C@@H](C)C(=O)OC(C)C)OC[C@H]1O[C@@](C#N)(c2ccc3c(N)ncnn23)[C@H](OC(=O)C(C)(C)C)[C@@H]1OC(=O)C(C)(C)C [Compound 4a]	0.05 to 0.5 µM
CCCCC/C=C\C/C=C\CCCCCCCCOC(=O)[C@H](C)N[P@@](=O)(OCOC(=O)OC(C)C)OC[C@H]1O[C@@](C#N)(c2ccc3c(N)ncnn23)[C@H](OC(=O)C(C)C)[C@@H]1OC(=O)C(C)C [Compound 52b]	0.05 to 0.5 µM
CCC(CC)COC(=O)[C@H](C)N[P@@](=O)(OCOC(=O)C(C)(C)C)OC[C@H]1O[C@@](C#N)(c2ccc3c(N)ncnn23)[C@H](OC(=O)C(C)(C)C)[C@@H]1OC(=O)C(C)(C)C [Compound 12b]	0.05 to 0.5 µM
CCC(CC)COC(=O)[C@H](C)N[P@@](=O)(OCOC(=O)C(C)(C)C)OC[C@H]1O[C@@](C#N)(c2ccc3c(N)ncnn23)[C@H](OC(=O)C(C)C)[C@@H]1OC(=O)C(C)C [Compound 11b]	< 0.005 µM
CCC(CC)COC(=O)[C@H](C)N[P@](=O)(OCOC(=O)C(C)(C)C)OC[C@H]1O[C@@](C#N)(c2ccc3c(N)ncnn23)[C@H](OC(=O)C(C)C)[C@@H]1OC(=O)C(C)C [Compound 11a]	0.01 to 0.05 µM
CC(C)C(=O)O[C@H]1[C@@H](OC(=O)C(C)C)[C@](C#N)(c2ccc3c(N)ncnn23)O[C@@H]1CO[P@@](=O)(OCOC(=O)C(C)(C)C)Oc1ccc(C(C)(C)C)cc1 [Compound 44b]	0.01 to 0.05 µM
CCC(CC)COC(=O)[C@H](C)N[P@@](=O)(OCOC(=O)OC(C)C)OC[C@H]1O[C@@](C#N)(c2ccc3c(N)ncnn23)[C@H](OC(=O)C(C)C)[C@@H]1OC(=O)C(C)C [Compound 7b]	0.01 to 0.05 µM
CCC(CC)COC(=O)C1(N[P@](=O)(OCOC(=O)OC(C)C)OC[C@H]2O[C@@](C#N)(c3ccc4c(N)ncnn34)[C@H](OC(=O)C(C)C)[C@@H]2OC(=O)C(C)C)CCC1 [Compound 32a]	0.01 to 0.05 µM
CC(C)C(=O)O[C@H]1[C@@H](OC(=O)C(C)C)[C@](C#N)(c2ccc3c(N)ncnn23)O[C@@H]1CO[P@@](=O)(N[C@@H](Cc1ccccc1)C(=O)OC1CCC1)Oc1ccccc1 [Compound 63b]	< 0.005 µM

====

tested on: SARS-CoV-2 replicon; type: cell-based; conditions: read-out: SARS-CoV-2 Replicon (Huh-7cell) EC50
Each record here notes measured EC50.

COMPOUND	EC50
CC(C)OC(=O)OCO[P@](=O)(N[C@@H](C)C(=O)OC(C)C)OC[C@H]1O[C@@](C#N)(c2ccc3c(N)ncnn23)[C@H](OC(=O)C(C)(C)C)[C@@H]1OC(=O)C(C)(C)C	0.05 to 0.5 µM
CCC(CC)COC(=O)[C@H](C)N[P@@](=O)(OCOC(=O)C(C)(C)C)OC[C@H]1O[C@@](C#N)(c2ccc3c(N)ncnn23)[C@H](OC(C)=O)[C@@H]1OC(C)=O	≤ 0.005 µM
CC(C)OC(=O)OCO[P@](=O)(N[C@@H](C)C(=O)OC(C)C)OC[C@H]1O[C@@](C#N)(c2ccc3c(N)ncnn23)[C@H](OC(=O)C(C)C)[C@@H]1OC(=O)C(C)C	< 0.005 µM
CCC(CC)COC(=O)C1(N[P@@](=O)(OC[C@H]2O[C@@](C#N)(c3ccc4c(N)ncnn34)[C@H](OC(=O)C(C)C)[C@@H]2OC(=O)C(C)C)Oc2ccccc2)CCC1 [Compound 40a]	0.01 to 0.05 µM
CCC(CC)COC(=O)[C@H](Cc1ccccc1)N[P@@](=O)(OC[C@H]1O[C@@](C#N)(c2ccc3c(N)ncnn23)[C@H](OC(=O)C(C)C)[C@@H]1OC(=O)C(C)C)Oc1ccc(C(C)(C)C)cc1 [Compound 53a]	0.05 to 0.5 µM

====

Each record here notes measured pEC50.
system: SARS-CoV-2 replicon; format: cell-based; settings: read-out: SARS-CoV-2 Replicon (Huh-7cell) EC50
pEC50: −log10 of the molar value.
MEASUREMENT LABEL: pEC50

MOLECULE	TEST TARGET	RESULT
CC(=O)OCO[P@@](=O)(OC[C@H]1O[C@@](C#N)(c2ccc3c(N)ncnn23)[C@H](OC(=O)C(C)C)[C@@H]1OC(=O)C(C)C)Oc1ccc(C(C)(C)C)cc1 [Compound 43a]	SARS-CoV-2 replicon	8.00 to 8.30
CCC(=O)O[C@H]1[C@@H](OC(=O)CC)[C@](C#N)(c2ccc3c(N)ncnn23)O[C@@H]1CO[P@](=O)(OCOC(=O)OC(C)C)Oc1ccc(C(C)(C)C)cc1 [Compound 23a]	SARS-CoV-2 replicon	> 8.30
CC(C)OC(=O)OCO[P@@](=O)(N[C@@H](C)C(=O)OC1CCC1)OC[C@H]1O[C@@](C#N)(c2ccc3c(N)ncnn23)[C@H](OC(=O)C(C)C)[C@@H]1OC(=O)C(C)C [Compound 13a]	SARS-CoV-2 replicon	> 8.30
CCCCC/C=C\C/C=C\CCCCCCCCOC(=O)[C@H](C)N[P@](=O)(OCOC(=O)OC(C)C)OC[C@H]1O[C@@](C#N)(c2ccc3c(N)ncnn23)[C@H](OC(=O)C(C)C)[C@@H]1OC(=O)C(C)C [Compound 52a]	SARS-CoV-2 replicon	6.30 to 7.30
CC(C)OC(=O)OCO[P@@](=O)(N[C@@H](C)C(=O)OC(C)C)OC[C@H]1O[C@@](C#N)(c2ccc3c(N)ncnn23)[C@H](OC(=O)C(C)C)[C@@H]1OC(=O)C(C)C	SARS-CoV-2 replicon	7.30 to 8.00
CC(C)OC(=O)OCOP(=O)(OCOC(=O)OC(C)C)OC[C@H]1O[C@@](C#N)(c2ccc3c(N)ncnn23)[C@H](OC(=O)C(C)(C)C)[C@@H]1OC(=O)C(C)(C)C	SARS-CoV-2 replicon	7.30 to 8.00
CC(C)OC(=O)OCOP(=O)(OCOC(=O)OC(C)C)OC[C@H]1O[C@@](C#N)(c2c(Br)cc3c(N)ncnn23)[C@H](OC(=O)C(C)C)[C@@H]1OC(=O)C(C)C	SARS-CoV-2 replicon	6.30 to 7.30
CCC(C)(C)COC(=O)[C@H](C)NP(=O)(OCOC(=O)OC(C)C)OC[C@H]1O[C@@](C#N)(c2ccc3c(N)ncnn23)[C@H](OC(=O)C(C)C)[C@@H]1OC(=O)C(C)C (mixture of isomers)	SARS-CoV-2 replicon	7.30 to 8.00
CCC(=O)O[C@H]1[C@@H](OC(=O)CC)[C@](C#N)(c2ccc3c(N)ncnn23)O[C@@H]1CO[P@@](=O)(N[C@@H](C)C(=O)OCC(CC)CC)OCOC(=O)C(C)(C)C [Compound 10b]	SARS-CoV-2 replicon	≥ 8.30
CCC(CC)COC(=O)[C@H](Cc1ccccc1)N[P@](=O)(OC[C@H]1O[C@@](C#N)(c2ccc3c(N)ncnn23)[C@H](OC(=O)C(C)C)[C@@H]1OC(=O)C(C)C)Oc1ccccc1 [Compound 41b]	SARS-CoV-2 replicon	8.00 to 8.30
